# target system: 5-HT2B (Homo sapiens (Human))
# Sequence (P41595 whole entry): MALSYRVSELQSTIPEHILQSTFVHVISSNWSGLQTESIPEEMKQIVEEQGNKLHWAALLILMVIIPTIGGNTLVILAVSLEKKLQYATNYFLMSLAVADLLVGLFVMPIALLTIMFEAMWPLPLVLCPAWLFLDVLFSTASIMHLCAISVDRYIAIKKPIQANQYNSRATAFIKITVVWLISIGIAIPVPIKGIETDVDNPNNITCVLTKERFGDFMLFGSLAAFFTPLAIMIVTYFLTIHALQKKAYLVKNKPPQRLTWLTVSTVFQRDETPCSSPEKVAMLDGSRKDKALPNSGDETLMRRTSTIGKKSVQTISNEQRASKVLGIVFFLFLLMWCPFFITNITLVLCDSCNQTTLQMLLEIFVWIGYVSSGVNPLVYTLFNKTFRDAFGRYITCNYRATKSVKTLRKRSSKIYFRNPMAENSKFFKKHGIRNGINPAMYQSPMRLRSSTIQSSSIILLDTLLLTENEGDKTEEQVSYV
# protocol text: 5-HT2B antagonist assay (DiscoveRx Calcium NWPLUS, FLIPR)
property measured: IC50
Please provide the amount together with its unit, number first.

For this compound ( CCC(Cc1ccc2ccoc2c1)NC (racemic) ), measured IC50 is 3.08 µM

----------
# target system: human 5-HT transporter (hSERT) (Homo sapiens (Human))
# protocol text: Human serotonin transporter  assay ([3H]imipramine radioligand, CHO cells)
# Assay type: binding
property measured: Ki (µM)
Give a bare numeral; the unit µM is implied.

For this compound ( CNC(C)C(=O)c1ccc2ccoc2c1 (single isomer, unassigned; (+)) [(+)-Bk-6-MAPB] ), measured Ki is 51

----------
Reported IC50 values for a set of compounds
# target system: serotonin (5-HT) transporter (SERT) (Rattus norvegicus (Rat), UniProt P31652)
# protocol text: Rat synaptosome SERT uptake inhibition assay ([3H]5-HT)
Give a bare numeral; the unit µM is implied.

record smiles	u	IC50
CC[C@H](Cc1ccc2ccoc2c1)NC	µM	0.702

For this compound ( CC[C@@H](Cc1ccc2ccoc2c1)NC ), measured IC50 is 0.217

----------
# target system: UniProt:P31645
# protocol text: Human serotonin transporter  assay ([3H]imipramine radioligand, CHO cells)
# Format: binding
property measured: pIC50
On this scale, pIC50 is minus log10 of a concentration expressed in M (mol/L).

For this compound ( CNC(C)C(=O)c1ccc2ccoc2c1 (single isomer, unassigned; (+)) [(+)-Bk-6-MAPB] ), measured pIC50 is 3.96

----------
# target system: SERT (Rattus norvegicus (Rat), UniProt P31652)
# protocol text: In vitro rat synaptosome serotonin release (efflux) assay (Examples 9, 58)
# Format: biochemical
# study conditions: rat synaptosomes
property measured: [3H]-labeled 5-HT release

Result for CCC(Cc1ccc2ccoc2c1)NC (racemic) [Pattern 6-MBPB, 6-MBPB] , tested on SERT (Rattus norvegicus (Rat), UniProt P31652), [3H]-labeled 5-HT release: 5-HT releaser

----------
Reported Hill Coef. values for a set of molecules
# target system: 5-HT1BR (Homo sapiens (Human))
# Format: cell-based
# study conditions: 5-HT1BR agonist curve
Structures can show the parent of a compound that is named as a salt.
Answer with a number only.

molecule	property measured	observed result
CN[C@H](C)Cc1ccc2occc2c1 [Pattern R-5-MAPB, R-5-MAPB]	Hill Coef.	1.13
CNC(C)C(=O)c1ccc2ccoc2c1 (single isomer, unassigned; (-)) [(−)-Bk-6-MAPB]	Hill Coef.	0.8339
CCC(NC)C(=O)c1ccc2occc2c1 (single isomer, unassigned; (-)) [(−)-BK-5-MBPB]	Hill Coef.	1.6241
CCC(NC)C(=O)c1ccc2occc2c1 (racemic) [rac-BK-5-MBPB]	Hill Coef.	1.01
CNC(C)C(=O)c1ccc2occc2c1 (single isomer, unassigned; (-)) [(−)-Bk-5-MAPB]	Hill Coef.	1.5
CN[C@@H](C)Cc1ccc2ccoc2c1 [Pattern S-6-MAPB, S-6-MAPB]	Hill Coef.	1.21

For this molecule ( CNC(C)C(=O)c1ccc2ccoc2c1 (racemic) [rac-BK-6-MAPB, hydrochloride] ), measured Hill Coef. is 0.99

----------
# target system: Human Trace Amine Associated Receptor (hTAAR1) (Homo sapiens (Human), UniProt Q96RJ0)
# protocol text: hTAAR1 agonist assay (DiscoverX cAMP Hunter)
# study conditions: positive control
property measured: EC50 (nM)
Give a bare numeral; the unit nM is implied.

For this compound ( NCCc1ccc(O)cc1 [p-Tyramine, reference compound] ), measured EC50 is 1140

These data points were gathered from patent US20250019357A1.
